Lab note: compare glass transition temperature against 80 °C. Equal or greater, write condition met. Smaller, write condition not met.

Here are 8 compounds together with their reported answers.
{"columns": ["COMPOUND", "LABEL CLASS"],
 "data": [
  ["*CC(C)CNC(=O)O* (repeat unit)", "condition not met"],
  ["*CCCCCOC(=O)c1ccccc1C(=O)[O][Cd][O]C(=O)c1ccccc1C(=O)OCCCCCOC(=O)NCCCCCCNC(=O)O* (repeat unit)", "condition not met"],
  ["*C(=O)Nc1ccc(Oc2ccc(Oc3ccc(N4C(=O)c5ccc(*)cc5C4=O)cc3)cc2)cc1 (repeat unit)", "condition met"],
  ["*Oc1ccc(C(c2ccc(OC(=O)c3ccccc3-c3ccccc3C(*)=O)cc2)(C(F)(F)F)C(F)(F)F)cc1 (repeat unit)", "condition met"],
  ["*c1ccc(Oc2cccc(Oc3ccc(N4C(=O)c5ccc(Oc6ccc(Oc7ccc(Oc8ccc9c(c8)C(=O)N(*)C9=O)cc7)cc6)cc5C4=O)cc3)c2)cc1 (repeat unit)", "condition met"],
  ["*CC(*)CC1CCCCC1 (repeat unit)", "condition not met"],
  ["*CC(*)(C)C(=O)OC(C)(C)C (repeat unit) [Poly(t-butyl methacrylate) ]", "condition met"],
  ["*c1ccc(Oc2ccc(-c3ccc(Oc4ccc(N5C(=O)c6ccc(Oc7ccc8cc(Oc9ccc%10c(c9)C(=O)N(*)C%10=O)ccc8c7)cc6C5=O)cc4)cc3)cc2)cc1 (repeat unit)", "condition met"]
]}

Prompt: Check the entry *Oc1ccc(CC(NC(=O)CCc2ccc(OC(=O)CCCCCCCCC(*)=O)cc2)C(=O)OCCCCCCCCCCCC)cc1 (repeat unit) : does glass transition temperature equal or exceed 80 °C?
Completion: condition not met

Prompt: Check the entry */C=C/c1sc(/C=C/c2ccc3c4ccc(*)cc4n(CC(CC)CCCC)c3c2)c(CC(CC)CCCC)c1CC(CC)CCCC (repeat unit) : does glass transition temperature equal or exceed 80 °C?
Completion: condition not met

Prompt: Check the entry *NC(CCC(=O)OCc1ccc(F)cc1)C(*)=O (repeat unit) : does glass transition temperature equal or exceed 80 °C?
Completion: condition not met

Prompt: Check the entry *CCCCCCOC(=O)c1ccc(-c2ccc(-c3ccc(C(=O)O*)cc3)cc2)cc1 (repeat unit) : does glass transition temperature equal or exceed 80 °C?
Completion: condition not met

Prompt: Check the entry *CC(*)c1ccc(COC)cc1 (repeat unit) : does glass transition temperature equal or exceed 80 °C?
Completion: condition not met

Prompt: Check the entry *CCN(CCOC(=O)Nc1ccc(C)c(NC(=O)O*)c1)c1ccc(/C=C2/NC(=O)NC2=O)cc1 (repeat unit) : does glass transition temperature equal or exceed 80 °C?
Completion: condition met

Prompt: Check the entry *Oc1ccc(C(C)(C)c2ccc(Oc3ccc4c(c3)C(=O)N(N3C(=O)c5ccc(*)cc5C3=O)C4=O)cc2)cc1 (repeat unit) : does glass transition temperature equal or exceed 80 °C?
Completion: condition met

Prompt: Check the entry *c1ccc(Oc2ccc(S(=O)(=O)c3ccc(Oc4ccc(-c5c6c(c(*)c7ccccc57)C(=O)N(CCCCCCCCCCCC)C6=O)cc4)cc3)cc2)cc1 (repeat unit) : does glass transition temperature equal or exceed 80 °C?
Completion: condition met

Prompt: Check the entry *C(=O)c1ccc2c(c1)C(=O)N(c1ccc(CP(=O)(OCC)OCC)c(N3C(=O)c4ccc(*)cc4C3=O)c1)C2=O (repeat unit) : does glass transition temperature equal or exceed 80 °C?
Completion: condition met
